system: angiogenesis genes in dermal microvascular endothelial cells; test: Real time RT-PCR of angiogenesis gene expression during endothelial tube formation; type: cell-based; details: 1 μM SM, 24 hours
Collected Log2 fold-change of gene expression: HAND2 values appear next to each entry.
Kindly provide the number alone.

Look over these answered cases.
>>> number("O=C1C(=Cc2ccccc2)C(NC2CCCCC2)c2ccccc21 (stereo not drawn) [compound 150117]")
1.5
>>> number("COc1ccc(CC2C(=O)NC(C)C(=O)N(C)C3Cc4ccc(cc4)Oc4cc(ccc4O)CC(C(=O)NC(C)C(=O)NC(C)C(=O)N2C)N(C)C3=O)cc1 (stereo not drawn) [compound 259969]")
1.4
>>> number("COc1cc2cc(c1Cl)N(C)C(=O)CC(OC(=O)C(C)C)C1(C)OC1C(C)C1CC(O)(NC(=O)O1)C(OC)/C=C/C=C(\\C)C2 (stereo not drawn) [compound 292222]")
1.0
>>> number("COC(=O)C1CC(=O)C(C(=O)OC)CC1=O (stereo not drawn) [Compound 122567]")
0.4
>>> number("CC1CCN(CC[S-])CC1.O.O.[Cl][Pt+] [compound 292596]")
1.7

Prompt: What Log2 fold-change of gene expression: HAND2 value was documented for this compound, CCC(=O)OCN1C(=O)C=CC1=O [compound 19630] ?
Completion: −0.5

----------
system: PAE cells; experiment: Fluorescence-release cytotoxicity assay; settings: endothelial cells
Quantity kind: cytotoxicity (in words)

>>> result("Cl.O=C1C(=Cc2ccccc2)C(NC2CCCCC2)c2ccccc21 (stereo not shown)")
"without cytotoxicity"
>>> result("COc1ccc(-c2csc3c2-n2cccc2C3=O)cc1")
"without cytotoxicity"
>>> result("O=C(c1no[n+]([O-])c1C(=O)c1csc2ccccc12)c1csc2ccccc12")
"cytotoxic"
>>> result("CC1(C)N=C(N)N=C(N)N1CCCCc1ccccc1.Cl")
"cytotoxic"

----------
system: angiogenesis genes in dermal microvascular endothelial cells; test: Real time RT-PCR of angiogenesis gene expression during endothelial tube formation; format: cell-based; settings: 1 μM SM, 24 hours
Collected Log2 fold-change of gene expression: ESAM1 values appear next to each entry.
Kindly provide the number alone.

>>> number("O=C1C(=Cc2ccccc2)C(NC2CCCCC2)c2ccccc21 (stereo not drawn)")
"−2.6"
>>> number("CC1CCN(CC[S-])CC1.O.O.[Cl][Pt+]")
"−2.0"
>>> number("COc1cc2cc(c1Cl)N(C)C(=O)CC(OC(=O)C(C)C)C1(C)OC1C(C)C1CC(O)(NC(=O)O1)C(OC)/C=C/C=C(\\C)C2 (stereo not drawn)")
"−1.1"
>>> number("CCC(=O)OCN1C(=O)C=CC1=O")
"−3.3"
>>> number("COC(=O)C1CC(=O)C(C(=O)OC)CC1=O (stereo not drawn)")
"−2.9"

Would you kindly look at the next entry?
Prompt: What Log2 fold-change of gene expression: ESAM1 value was documented for this compound, COc1ccc(CC2C(=O)NC(C)C(=O)N(C)C3Cc4ccc(cc4)Oc4cc(ccc4O)CC(C(=O)NC(C)C(=O)NC(C)C(=O)N2C)N(C)C3=O)cc1 (stereo not drawn) ?
Completion: −1.6

----------
target: KDR(VEGFR2) (Homo sapiens, UniProt P35968); assay: SelectScreen kinase activity profiling, KDR(VEGFR2); type: biochemical; set-up: concentration or dose not given beside the values; settings: KDR(VEGFR2); second of two independent trials
Sequence (P35968 20-1356): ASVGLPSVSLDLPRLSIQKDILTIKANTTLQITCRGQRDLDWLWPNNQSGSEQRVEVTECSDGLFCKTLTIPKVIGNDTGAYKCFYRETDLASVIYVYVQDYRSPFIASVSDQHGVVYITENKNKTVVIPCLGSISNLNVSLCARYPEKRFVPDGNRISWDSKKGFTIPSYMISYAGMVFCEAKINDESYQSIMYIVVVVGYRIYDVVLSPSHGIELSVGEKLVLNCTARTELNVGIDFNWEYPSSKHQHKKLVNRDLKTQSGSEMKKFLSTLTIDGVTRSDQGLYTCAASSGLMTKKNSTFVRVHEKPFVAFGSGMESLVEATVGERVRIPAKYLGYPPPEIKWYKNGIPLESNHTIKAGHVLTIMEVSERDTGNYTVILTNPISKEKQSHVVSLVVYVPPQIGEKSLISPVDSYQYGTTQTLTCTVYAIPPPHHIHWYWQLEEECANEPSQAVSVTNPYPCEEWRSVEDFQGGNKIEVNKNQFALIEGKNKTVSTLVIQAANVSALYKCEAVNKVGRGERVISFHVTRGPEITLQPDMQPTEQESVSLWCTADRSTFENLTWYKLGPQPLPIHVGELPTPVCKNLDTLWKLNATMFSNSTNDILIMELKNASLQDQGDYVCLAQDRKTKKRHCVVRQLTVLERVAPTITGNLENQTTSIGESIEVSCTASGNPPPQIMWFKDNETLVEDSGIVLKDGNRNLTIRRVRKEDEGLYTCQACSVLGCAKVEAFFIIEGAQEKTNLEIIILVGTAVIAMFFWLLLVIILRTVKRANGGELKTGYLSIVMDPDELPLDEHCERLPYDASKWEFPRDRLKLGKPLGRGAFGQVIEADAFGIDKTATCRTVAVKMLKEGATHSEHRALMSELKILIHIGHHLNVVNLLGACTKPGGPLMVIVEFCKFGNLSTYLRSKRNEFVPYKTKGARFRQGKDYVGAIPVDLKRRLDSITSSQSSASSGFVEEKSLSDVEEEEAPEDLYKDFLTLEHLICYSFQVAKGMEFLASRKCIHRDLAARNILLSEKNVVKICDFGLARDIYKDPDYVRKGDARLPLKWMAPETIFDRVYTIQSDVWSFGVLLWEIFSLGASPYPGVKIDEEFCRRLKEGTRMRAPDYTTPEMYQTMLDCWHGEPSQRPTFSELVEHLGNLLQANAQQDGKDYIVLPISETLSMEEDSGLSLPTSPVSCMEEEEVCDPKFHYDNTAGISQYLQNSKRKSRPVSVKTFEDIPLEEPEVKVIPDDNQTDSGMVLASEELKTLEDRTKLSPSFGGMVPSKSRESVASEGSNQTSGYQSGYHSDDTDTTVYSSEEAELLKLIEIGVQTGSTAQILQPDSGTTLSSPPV
Collected % Inhibition values appear next to each entry.
The reply should consist of the numeric value with the unit placed after it.

Look over these answered cases.
>>> result("CS(=O)(=O)c1ccc(/C=N/NC(N)=S)cc1")
"11%"
>>> result("CC1CCN(CC[S-])CC1.O.O.[Cl][Pt+]")
"18%"
>>> result("O=C(O)C1CCCN1Cc1ccc2c(c1)OCO2 (stereo not shown)")
"6%"
>>> result("CC(C)(C)c1cc(O)ccc1O")
"11%"
>>> result("CC1(C)CC(Nc2ccc(Nc3ccccc3)cc2)CC(C)(C)N1")
"16%"
>>> result("CSC(=[SH+])[N-]N=C(c1ccccn1)c1ccccn1.[Cu][Br]")
"45%"
>>> result("Cc1ccc(S(=O)(=O)OCC(=O)O)cc1")
"11%"
>>> result("CCC(=O)OCN1C(=O)C=CC1=O")
"91%"

Prompt: What % Inhibition value was documented for this molecule, OC(c1cc(-c2ccccc2)nc2c1ccc1ccccc12)C1CCCCN1 (stereo not shown) ?
Completion: 2%

Prompt: What % Inhibition value was documented for this molecule, COc1ccc(-c2csc3c2-n2cccc2C3=O)cc1 ?
Completion: 8%
